study-target: T1, Human CD3 on CD3+ Jurkat cells (human, UniProt P07766 23-207)
T1 construct: whole, on cells; Target is the endogenous CD3 complex on cells; also called Human CD3+ Jurkat cells
T1 sequence (P07766 23-207): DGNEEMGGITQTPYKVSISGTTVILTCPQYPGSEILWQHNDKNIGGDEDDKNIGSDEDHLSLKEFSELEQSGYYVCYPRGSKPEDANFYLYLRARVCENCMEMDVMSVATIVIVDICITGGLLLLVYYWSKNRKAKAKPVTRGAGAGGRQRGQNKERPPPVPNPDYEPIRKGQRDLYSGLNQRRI
test-details: flow cytometry, 100 nM IgG1, pH 7.4
Item-by-item account of NCB (Normalized Cell Binding)
reported-endpoint: NCB (Normalized Cell Binding)

# binder, reported-endpoint, val
rows = [
    ("Antibody No. V009 (ADI-70326) IgG1 (antibody, V domains shown, IgG1, CHO-produced) VH: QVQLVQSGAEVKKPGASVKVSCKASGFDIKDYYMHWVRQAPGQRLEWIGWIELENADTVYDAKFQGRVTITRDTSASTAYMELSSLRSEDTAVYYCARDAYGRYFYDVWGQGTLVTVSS VL: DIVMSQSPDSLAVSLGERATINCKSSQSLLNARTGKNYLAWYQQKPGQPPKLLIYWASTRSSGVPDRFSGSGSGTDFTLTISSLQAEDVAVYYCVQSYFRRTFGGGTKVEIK", "NCB (Normalized Cell Binding)", 309),
    ("Antibody No. A003 (ADI-26913) IgG1 (antibody, V domains shown, IgG1, CHO-produced) VH: QVQLVQSGAEVKKPGASVKVSCKASGFNIKDYYMHWVRQAPGQRLEWMGWIDLENANTIYDAKFQGRVTITRDTSASTAYMELSSLRSEDTAVYYCARDQYGRYFYDVWGQGTLVTVSS VL: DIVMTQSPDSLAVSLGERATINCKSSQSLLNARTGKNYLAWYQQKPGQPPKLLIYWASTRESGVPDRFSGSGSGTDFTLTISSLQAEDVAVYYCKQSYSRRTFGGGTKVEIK", "NCB (Normalized Cell Binding)", 209),
    ("Antibody No. V016 (ADI-76359) IgG1 (antibody, V domains shown, IgG1, CHO-produced) VH: QVQLVQSGAEVKKPGASVKVSCKASGFDIKDYYMHWVRQAPGQRLEWMGWIDLENANTIYDAKFQGRVTITRDTSASTAYMELSSLRSEDTAVYYCGRDAYGRYFYDVWGQGTLVTVSS VL: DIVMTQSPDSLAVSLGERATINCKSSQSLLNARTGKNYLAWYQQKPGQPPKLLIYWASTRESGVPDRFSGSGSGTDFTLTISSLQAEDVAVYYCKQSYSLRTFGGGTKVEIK", "NCB (Normalized Cell Binding)", 314),
    ("Antibody No. A005 (ADI-26921) IgG1 (antibody, V domains shown, IgG1, CHO-produced) VH: QVQLVQSGAEVKKPGASVKVSCKASGFNIKDYYMHWVRQAPGQRLEWMGWIDLEEGNTIYDAKFQGRVTITRDTSASTAYMELSSLRSEDTAVYYCARDAYGRYFYDVWGQGTLVTVSS VL: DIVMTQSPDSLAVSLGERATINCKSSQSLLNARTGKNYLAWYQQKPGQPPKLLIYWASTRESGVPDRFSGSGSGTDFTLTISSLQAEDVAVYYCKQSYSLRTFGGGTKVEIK", "NCB (Normalized Cell Binding)", 206),
    ("Antibody No. V015 (ADI-76358) IgG1 (antibody, V domains shown, IgG1, CHO-produced) VH: QVQLVQSGAEVKKPGASVKVSCKASGFNIKDYYMHWVRQAPGQRLEWMGWIDLENADTIYDAKFQGRVTITRDTSASTAYMELSSLRSEDTAVYYCARDQYGRYFYDVWGQGTLVTVSS VL: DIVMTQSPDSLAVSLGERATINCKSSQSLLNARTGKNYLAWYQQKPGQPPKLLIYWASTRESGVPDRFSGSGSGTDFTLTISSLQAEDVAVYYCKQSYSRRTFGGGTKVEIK", "NCB (Normalized Cell Binding)", 334),
]

Every entry's value here was drawn from patent US20240317858A1.
